Source of measurements: the supplement of paper PMC6522484

Test system: SW480
experiment: cell viability (CellTiter-Glo) relative to plate median (fraction of plate median); higher = more viable cells
assay-context: 5 µM; treatment time 24 h; reporter: 7TFP
quantity-kind: cell viability
No unit in the answer, please; the number alone is enough.

As a guide, the following entries are already answered.
>  <compound>
C/C=C/c1ccc(OC)cc1

>  <quantity-kind>
cell viability

>  <reading>
1.03

$$$$
>  <compound>
C[C@@H]1CC[C@@]23CCC4(C)[C@@](C=CC5[C@@]6(C)CCC(=O)C(C)(C)C6CC[C@]54C)(OC2=O)C3[C@H]1C (stereo not given in full)

>  <quantity-kind>
cell viability

>  <reading>
0.956

$$$$

Task item: Request body: readout cell viability, system SW480, query "O=c1c(O)c(-c2ccccc2)oc2cccc(O)c12" . Return the value.
Reply: 1.01

Task item: Recorded cell viability for CCCCNS(=O)(=O)c1ccccc1 [N-butylbenzenesulphonamide (AB2)] with SW480, please?
Reply: 0.964

Task item: Identify the measured cell viability of "O=C(/C=C/c1ccccc1)c1ccc(O[C@@H]2O[C@H](CO)[C@@H](O)[C@H](O)[C@H]2O)cc1O" for SW480.
Reply: 0.978

###

Test system: DLD1
experiment: TCF/Wnt firefly luciferase reporter signal relative to plate median (fraction of plate median); higher = higher Wnt reporter signal
assay-context: 5 µM; treatment time 24 h; reporter: 7TFP
Returns one of Criterion met or Criterion not met; Criterion met when TCF/Wnt firefly luciferase reporter signal is >= 1.

// below: answered compounds
>  <compound>
CC1(C)CC2C1CCC1(C)OC1CCC2(C)O (stereo not given)

>  <system-name>
DLD1

>  <class>
Criterion met

$$$$
>  <compound>
Nc1nc(N)c2nc(-c3ccccc3)c(N)nc2n1

>  <system-name>
DLD1

>  <class>
Criterion met

$$$$

Now for a further compound.
Task item: Given the entry "O=C1[C@H](CC[C@H](O)c2ccc(F)cc2)[C@@H](c2ccc(O)cc2)N1c1ccc(F)cc1" , answer whether its TCF/Wnt firefly luciferase reporter signal meets or surpasses 1.
Reply: Criterion not met

###

System: DLD1
experiment: cell viability (CellTiter-Glo) relative to plate median (fraction of plate median); higher = more viable cells
assay-context: 5 µM; treatment time 24 h; reporter: 7TFP
quantity-kind: cell viability
Please state the value as a number alone, without comment.

Here's what some known entries look like.
>  <compound>
CCOC(=O)CCCCCCCCCCCCC1C=CCC1 (stereo unspecified)

>  <cell viability>
0.938

$$$$
>  <compound>
CN(C)CCOC(=O)COc1ccc(Cl)cc1

>  <cell viability>
0.979

$$$$
>  <compound>
Cc1nnc(NS(=O)(=O)c2ccc(N)cc2)s1

>  <cell viability>
1.01

$$$$
>  <compound>
O=C(O)c1cc2ccccc2[nH]1

>  <cell viability>
0.968

$$$$
>  <compound>
O=C(O)C1CCCNC1 (stereo unspecified)

>  <cell viability>
0.994

$$$$
>  <compound>
CC(=O)O[C@H]1C[C@@H](OC(C)=O)C(C)(C)[C@@H]2C[C@@H](OC(C)=O)[C@@]3(C)C4=CC(=O)O[C@@H](c5ccoc5)[C@]4(C)CC[C@@H]3[C@@]12C

>  <cell viability>
1.01

$$$$

Task item: Can you look up the measured cell viability of "C[C@@]12C[C@@]3(O)O[C@@H](O1)[C@]1(COC(=O)c4ccccc4)[C@H]3C[C@@]12O[C@@H]1O[C@H](CO)[C@@H](O)[C@H](O)[C@H]1O" for me?
Reply: 1.06

Task item: Fill blank: measured cell viability of the compound "C=CCNC1=C2C[C@@H](C)C[C@H](OC)[C@H](O)[C@@H](C)/C=C(\C)[C@H](OC(N)=O)[C@@H](OC)/C=C\C=C(/C)C(=O)NC(=CC1=O)C2=O" is ____.
Reply: 1.07
